Data provenance is patent US20240018502A1.

# measurementTarget: plasma purified human complement protein C3 (human) (UniProt P01024)
# Sequence (P01024 23-667, chain 1 of 2): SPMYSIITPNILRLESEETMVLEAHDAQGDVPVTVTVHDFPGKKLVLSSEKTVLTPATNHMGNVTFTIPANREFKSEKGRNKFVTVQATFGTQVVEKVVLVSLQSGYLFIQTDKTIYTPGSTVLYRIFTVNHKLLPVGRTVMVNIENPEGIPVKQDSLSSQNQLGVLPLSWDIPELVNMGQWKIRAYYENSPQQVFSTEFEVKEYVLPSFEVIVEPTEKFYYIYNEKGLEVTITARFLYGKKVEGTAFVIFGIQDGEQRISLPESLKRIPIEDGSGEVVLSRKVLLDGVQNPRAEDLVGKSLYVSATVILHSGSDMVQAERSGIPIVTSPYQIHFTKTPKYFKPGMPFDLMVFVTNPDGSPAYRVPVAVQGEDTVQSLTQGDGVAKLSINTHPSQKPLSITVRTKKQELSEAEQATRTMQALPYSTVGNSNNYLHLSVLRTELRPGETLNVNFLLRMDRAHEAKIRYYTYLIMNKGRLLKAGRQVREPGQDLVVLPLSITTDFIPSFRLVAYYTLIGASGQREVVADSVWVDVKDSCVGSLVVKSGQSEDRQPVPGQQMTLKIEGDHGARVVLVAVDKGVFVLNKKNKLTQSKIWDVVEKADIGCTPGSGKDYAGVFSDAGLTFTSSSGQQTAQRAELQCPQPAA
# Sequence (P01024 672-1663, chain 2 of 2): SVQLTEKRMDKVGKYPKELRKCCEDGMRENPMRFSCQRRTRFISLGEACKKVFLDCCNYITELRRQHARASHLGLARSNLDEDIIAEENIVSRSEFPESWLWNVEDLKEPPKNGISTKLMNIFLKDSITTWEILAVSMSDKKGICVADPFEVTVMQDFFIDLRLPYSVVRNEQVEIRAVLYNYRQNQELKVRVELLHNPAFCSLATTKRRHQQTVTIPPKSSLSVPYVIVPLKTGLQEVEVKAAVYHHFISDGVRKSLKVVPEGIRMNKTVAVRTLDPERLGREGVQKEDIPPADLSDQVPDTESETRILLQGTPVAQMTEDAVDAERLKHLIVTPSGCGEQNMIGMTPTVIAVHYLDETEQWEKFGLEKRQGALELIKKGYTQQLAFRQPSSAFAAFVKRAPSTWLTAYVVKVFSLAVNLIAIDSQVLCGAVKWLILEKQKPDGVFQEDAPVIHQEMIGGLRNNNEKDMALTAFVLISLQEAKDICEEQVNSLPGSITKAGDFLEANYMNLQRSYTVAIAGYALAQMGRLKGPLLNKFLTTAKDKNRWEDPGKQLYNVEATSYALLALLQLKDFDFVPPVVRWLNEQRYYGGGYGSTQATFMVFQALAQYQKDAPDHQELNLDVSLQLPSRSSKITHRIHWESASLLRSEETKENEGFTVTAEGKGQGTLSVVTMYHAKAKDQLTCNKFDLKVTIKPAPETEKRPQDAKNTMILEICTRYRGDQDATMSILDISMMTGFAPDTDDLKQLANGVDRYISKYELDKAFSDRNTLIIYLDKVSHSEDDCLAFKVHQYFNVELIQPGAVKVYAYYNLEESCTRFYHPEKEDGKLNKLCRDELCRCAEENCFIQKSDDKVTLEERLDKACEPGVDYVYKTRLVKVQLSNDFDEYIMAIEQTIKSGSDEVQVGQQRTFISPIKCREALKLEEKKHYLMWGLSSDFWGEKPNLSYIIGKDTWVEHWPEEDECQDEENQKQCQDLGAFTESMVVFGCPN
# protocol: cell-based or functional assay
hey, just use true if measured EC50 hC3 cleavage is less than 30 nM, otherwise false

Just wondering, is EC50 hC3 cleavage of MTSP-1 protease domain Q38Y/I41E/D60bS/F60eV/Y60gF/D96W/F97N/T98G/F99L/C122S/G151N/Q175L/Q192D (enzyme) VVGGTDADEGEWPWQVSLHALGYGHECGASLISPNWLVSAAHCYIDSRGVRFSDPTQWTAFLGLHDQSQRSAPGVQERRLKRIISHPFFNWNGLDYDIALLELEKPAEYSSMVRPISLPDASHVFPAGKAIWVTGWGHTQYGGTNALILQKGEIRVINQTTCENLLPQLITPRMMCVGFLSGGVDSCDGDSGGPLSSVEADGRIFQAGVVSWGDGCAQRNKPGVYTRLPLFRDWIKENTGV below 30 nM?
false

Subsequent entry: MTSP-1 protease domain Q38H/I41S/D60bT/F60eS/Y60gW/F97D/T98P/F99L/C122S/G151H/Q175L/Q192E (enzyme) VVGGTDADEGEWPWQVSLHALGHGHSCGASLISPNWLVSAAHCYIDTRGSRWSDPTQWTAFLGLHDQSQRSAPGVQERRLKRIISHPFFNDDPLDYDIALLELEKPAEYSSMVRPISLPDASHVFPAGKAIWVTGWGHTQYGGTHALILQKGEIRVINQTTCENLLPQLITPRMMCVGFLSGGVDSCEGDSGGPLSSVEADGRIFQAGVVSWGDGCAQRNKPGVYTRLPLFRDWIKENTGV
true

Subsequent entry: MTSP-1 protease domain I41G/F97L/F99L/C122S/G151N/Q175A/Q192V/D217R (enzyme) VVGGTDADEGEWPWQVSLHALGQGHGCGASLISPNWLVSAAHCYIDDRGFRYSDPTQWTAFLGLHDQSQRSAPGVQERRLKRIISHPFFNDLTLDYDIALLELEKPAEYSSMVRPISLPDASHVFPAGKAIWVTGWGHTQYGGTNALILQKGEIRVINQTTCENLLPQAITPRMMCVGFLSGGVDSCVGDSGGPLSSVEADGRIFQAGVVSWGRGCAQRNKPGVYTRLPLFRDWIKENTGV
false

Subsequent entry: MTSP-1 protease domain Q38Y/I41S/D60bT/F60eR/Y60gW/D96M/F97N/T98G/C122S/G151N/Q175L/Q192D (enzyme) VVGGTDADEGEWPWQVSLHALGYGHSCGASLISPNWLVSAAHCYIDTRGRRWSDPTQWTAFLGLHDQSQRSAPGVQERRLKRIISHPFFNMNGFDYDIALLELEKPAEYSSMVRPISLPDASHVFPAGKAIWVTGWGHTQYGGTNALILQKGEIRVINQTTCENLLPQLITPRMMCVGFLSGGVDSCDGDSGGPLSSVEADGRIFQAGVVSWGDGCAQRNKPGVYTRLPLFRDWIKENTGV
false

Subsequent entry: MTSP-1 protease domain I41D/F97R/F99L/C122S/G151Q/Q192V/D217L (enzyme) VVGGTDADEGEWPWQVSLHALGQGHDCGASLISPNWLVSAAHCYIDDRGFRYSDPTQWTAFLGLHDQSQRSAPGVQERRLKRIISHPFFNDRTLDYDIALLELEKPAEYSSMVRPISLPDASHVFPAGKAIWVTGWGHTQYGGTQALILQKGEIRVINQTTCENLLPQQITPRMMCVGFLSGGVDSCVGDSGGPLSSVEADGRIFQAGVVSWGLGCAQRNKPGVYTRLPLFRDWIKENTGV
false
